meta.source: BigSolDB 2.1

Details: in acetonitrile, 303.15 K
reported endpoint: solubility (mole fraction)
Number only, please.

What value of solubility (mole fraction) has been recorded for this entry: N#CCc1ccccc1[N+](=O)[O-]
0.195

----------
Settings: in n-butanol, 288.15 K
reported endpoint: solubility (mole fraction)
Number only, please.

What value of solubility (mole fraction) has been recorded for this entry: N#CCc1ccccc1[N+](=O)[O-]
0.00569

----------
Conditions: in acetone, 308.15 K
reported endpoint: solubility (mole fraction)
Number only, please.

What value of solubility (mole fraction) has been recorded for this entry: N#CCc1ccccc1[N+](=O)[O-]
0.295

----------
Conditions: in ethanol, 283.15 K
reported endpoint: solubility (mole fraction)
Number only, please.

What value of solubility (mole fraction) has been recorded for this entry: N#CCc1ccccc1[N+](=O)[O-]
0.00566

----------
Details: in isobutanol, 318.15 K
reported endpoint: solubility (mole fraction)
Number only, please.

What value of solubility (mole fraction) has been recorded for this entry: N#CCc1ccccc1[N+](=O)[O-]
0.0228

----------
Settings: in ethylbenzene, 313.15 K
reported endpoint: solubility (mole fraction)
Number only, please.

What value of solubility (mole fraction) has been recorded for this entry: N#CCc1ccccc1[N+](=O)[O-]
0.101

----------
Conditions: in methanol, 308.15 K
reported endpoint: solubility (mole fraction)
Number only, please.

What value of solubility (mole fraction) has been recorded for this entry: N#CCc1ccccc1[N+](=O)[O-]
0.0305

----------
Conditions: in isopropanol, 303.15 K
reported endpoint: solubility (mole fraction)
Number only, please.

What value of solubility (mole fraction) has been recorded for this entry: N#CCc1ccccc1[N+](=O)[O-]
0.0132

----------
Conditions: in toluene, 283.15 K
reported endpoint: solubility (mole fraction)

What value of solubility (mole fraction) has been recorded for this entry: N#CCc1ccccc1[N+](=O)[O-]
0.0371

----------
Conditions: in acetic acid, 303.15 K
reported endpoint: solubility (mole fraction)
Number only, please.

What value of solubility (mole fraction) has been recorded for this entry: N#CCc1ccccc1[N+](=O)[O-]
0.0694

----------
Settings: in 1,4-dioxane, 298.15 K
reported endpoint: solubility (mole fraction)
Number only, please.

What value of solubility (mole fraction) has been recorded for this entry: N#CCc1ccccc1[N+](=O)[O-]
0.241

----------
Conditions: in acetone, 298.15 K
reported endpoint: solubility (mole fraction)
Number only, please.

What value of solubility (mole fraction) has been recorded for this entry: N#CCc1ccccc1[N+](=O)[O-]
0.227

----------
Details: in toluene, 333.15 K
reported endpoint: solubility (mole fraction)
Number only, please.

What value of solubility (mole fraction) has been recorded for this entry: N#CCc1ccccc1[N+](=O)[O-]
0.377

----------
Settings: in n-propanol, 308.15 K
reported endpoint: solubility (mole fraction)

What value of solubility (mole fraction) has been recorded for this entry: N#CCc1ccccc1[N+](=O)[O-]
0.0196

----------
Details: in ethanol, 278.15 K
reported endpoint: solubility (mole fraction)
Number only, please.

What value of solubility (mole fraction) has been recorded for this entry: N#CCc1ccccc1[N+](=O)[O-]
0.00458

----------
Settings: in acetonitrile, 298.15 K
reported endpoint: solubility (mole fraction)

What value of solubility (mole fraction) has been recorded for this entry: N#CCc1ccccc1[N+](=O)[O-]
0.168

----------
Details: in ethanol, 328.15 K
reported endpoint: solubility (mole fraction)
Number only, please.

What value of solubility (mole fraction) has been recorded for this entry: N#CCc1ccccc1[N+](=O)[O-]
0.0649

----------
Conditions: in water, 323.15 K
reported endpoint: solubility (mole fraction)
Number only, please.

What value of solubility (mole fraction) has been recorded for this entry: N#CCc1ccccc1[N+](=O)[O-]
0.000225

----------
Settings: in water, 278.15 K
reported endpoint: solubility (mole fraction)
Number only, please.

What value of solubility (mole fraction) has been recorded for this entry: N#CCc1ccccc1[N+](=O)[O-]
3.75e-05

----------
Details: in water, 283.15 K
reported endpoint: solubility (mole fraction)
Number only, please.

What value of solubility (mole fraction) has been recorded for this entry: N#CCc1ccccc1[N+](=O)[O-]
4.65e-05

----------
Conditions: in toluene, 298.15 K
reported endpoint: solubility (mole fraction)
Number only, please.

What value of solubility (mole fraction) has been recorded for this entry: N#CCc1ccccc1[N+](=O)[O-]
0.0738

----------
Details: in ethyl acetate, 293.15 K
reported endpoint: solubility (mole fraction)
Number only, please.

What value of solubility (mole fraction) has been recorded for this entry: N#CCc1ccccc1[N+](=O)[O-]
0.177

----------
Conditions: in isobutanol, 308.15 K
reported endpoint: solubility (mole fraction)

What value of solubility (mole fraction) has been recorded for this entry: N#CCc1ccccc1[N+](=O)[O-]
0.013

----------
Conditions: in 1,4-dioxane, 303.15 K
reported endpoint: solubility (mole fraction)

What value of solubility (mole fraction) has been recorded for this entry: N#CCc1ccccc1[N+](=O)[O-]
0.257

----------
Details: in 2-butanone, 293.15 K
reported endpoint: solubility (mole fraction)
Number only, please.

What value of solubility (mole fraction) has been recorded for this entry: N#CCc1ccccc1[N+](=O)[O-]
0.173

----------
Conditions: in methanol, 303.15 K
reported endpoint: solubility (mole fraction)
Number only, please.

What value of solubility (mole fraction) has been recorded for this entry: N#CCc1ccccc1[N+](=O)[O-]
0.0235

----------
Settings: in ethylbenzene, 293.15 K
reported endpoint: solubility (mole fraction)
Number only, please.

What value of solubility (mole fraction) has been recorded for this entry: N#CCc1ccccc1[N+](=O)[O-]
0.0423

----------
Settings: in acetonitrile, 278.15 K
reported endpoint: solubility (mole fraction)

What value of solubility (mole fraction) has been recorded for this entry: N#CCc1ccccc1[N+](=O)[O-]
0.0932

----------
Settings: in ethylbenzene, 298.15 K
reported endpoint: solubility (mole fraction)
Number only, please.

What value of solubility (mole fraction) has been recorded for this entry: N#CCc1ccccc1[N+](=O)[O-]
0.052

----------
Details: in n-butanol, 308.15 K
reported endpoint: solubility (mole fraction)

What value of solubility (mole fraction) has been recorded for this entry: N#CCc1ccccc1[N+](=O)[O-]
0.0175

----------
Details: in acetone, 313.15 K
reported endpoint: solubility (mole fraction)
Number only, please.

What value of solubility (mole fraction) has been recorded for this entry: N#CCc1ccccc1[N+](=O)[O-]
0.342

----------
Details: in toluene, 328.15 K
reported endpoint: solubility (mole fraction)
Number only, please.

What value of solubility (mole fraction) has been recorded for this entry: N#CCc1ccccc1[N+](=O)[O-]
0.303

----------
Details: in acetic acid, 293.15 K
reported endpoint: solubility (mole fraction)

What value of solubility (mole fraction) has been recorded for this entry: N#CCc1ccccc1[N+](=O)[O-]
0.0478

----------
Details: in 1,4-dioxane, 288.15 K
reported endpoint: solubility (mole fraction)
Number only, please.

What value of solubility (mole fraction) has been recorded for this entry: N#CCc1ccccc1[N+](=O)[O-]
0.216

----------
Settings: in ethyl acetate, 298.15 K
reported endpoint: solubility (mole fraction)

What value of solubility (mole fraction) has been recorded for this entry: N#CCc1ccccc1[N+](=O)[O-]
0.199

----------
Conditions: in toluene, 278.15 K
reported endpoint: solubility (mole fraction)
Number only, please.

What value of solubility (mole fraction) has been recorded for this entry: N#CCc1ccccc1[N+](=O)[O-]
0.0293

----------
Conditions: in acetic acid, 333.15 K
reported endpoint: solubility (mole fraction)
Number only, please.

What value of solubility (mole fraction) has been recorded for this entry: N#CCc1ccccc1[N+](=O)[O-]
0.244

----------
Settings: in ethanol, 293.15 K
reported endpoint: solubility (mole fraction)
Number only, please.

What value of solubility (mole fraction) has been recorded for this entry: N#CCc1ccccc1[N+](=O)[O-]
0.00939

----------
Conditions: in n-propanol, 293.15 K
reported endpoint: solubility (mole fraction)

What value of solubility (mole fraction) has been recorded for this entry: N#CCc1ccccc1[N+](=O)[O-]
0.00917

----------
Conditions: in n-propanol, 303.15 K
reported endpoint: solubility (mole fraction)
Number only, please.

What value of solubility (mole fraction) has been recorded for this entry: N#CCc1ccccc1[N+](=O)[O-]
0.0151

----------
Details: in n-butanol, 328.15 K
reported endpoint: solubility (mole fraction)
Number only, please.

What value of solubility (mole fraction) has been recorded for this entry: N#CCc1ccccc1[N+](=O)[O-]
0.0491

----------
Details: in methanol, 298.15 K
reported endpoint: solubility (mole fraction)

What value of solubility (mole fraction) has been recorded for this entry: N#CCc1ccccc1[N+](=O)[O-]
0.0174

----------
Settings: in methanol, 333.15 K
reported endpoint: solubility (mole fraction)
Number only, please.

What value of solubility (mole fraction) has been recorded for this entry: N#CCc1ccccc1[N+](=O)[O-]
0.108

----------
Details: in toluene, 318.15 K
reported endpoint: solubility (mole fraction)
Number only, please.

What value of solubility (mole fraction) has been recorded for this entry: N#CCc1ccccc1[N+](=O)[O-]
0.195

----------
Details: in isopropanol, 283.15 K
reported endpoint: solubility (mole fraction)
Number only, please.

What value of solubility (mole fraction) has been recorded for this entry: N#CCc1ccccc1[N+](=O)[O-]
0.00484
